The values you see were collected from ChEMBL document CHEMBL3988442.

Target: Aspartate--tRNA(Asp/Asn) ligase (Mycobacterium tuberculosis (strain ATCC 25618 / H37Rv)); also: in the data most compounds retested in dose-response had high values
Test: Assay for Asp RNA synthetase-1 from Mycobacterium tuberculosis
Assay type: functional
Set-up: scale not given: direction of the effect not stated beside the values
Settings: 30 µM
endpoint: Percent Effect (%)
Number only, in %; omit the unit.

API: value(readout= Percent Effect, system= Aspartate--tRNA(Asp/Asn) ligase (Mycobacterium tuberculosis (strain ATCC 25618 / H37Rv)), query= CCN(CC1CCOC1)C(=O)c1ccccc1N1CCOCC1 (stereo not drawn) ); also: in the data most compounds retested in dose-response had high values
-0.562

Same again, this time with Cc1cncc(C2CCCN(Cc3cccn3C)C2)n1 (stereo not drawn)
0.162

Same again, this time with `CCCNC(=O)Nc1cc2c(cc1SC)OCCO2`
-0.324

Same again, this time with CC(NC(=O)NCCCN(C)S(C)(=O)=O)c1cccc(Cl)c1 (stereo not drawn)
1.12

Same again, this time with `CC(C)NS(=O)(=O)c1cc(C(=O)O)cc(-c2ccc(CN(C)C)cc2)c1`
-3.46

Same again, this time with COCc1nc(C(=O)N2CCCC2c2noc(C(C)C)n2)cs1 (stereo not drawn)
2.63

Same again, this time with CS(=O)(=O)NCC1CCCN(C(=O)COc2ccc(F)cc2)C1 (stereo not drawn)
-1.75

Same again, this time with CS(=O)(=O)N1CCC(c2nnc3ccc(C(=O)N4CCCC4)cn23)C1 (stereo not drawn)
2

---

Biological target: Shiga toxin 2 (Escherichia coli O157:H7) (UniProt P09385+P09386)
Test: E. coli 0.157:H7 Shiga Toxin SOP - stx2 screening assay
Type: functional
Parameters: scale not given: direction of the effect not stated beside the values
Conditions: 30 µM
# maps each entry to its Percent Effect
Number only, in %; omit the unit.

| compound | assayed_target | unit_of_measure | Percent Effect |
| --- | --- | --- | --- |
| CCc1nc(CN(C)C2CCN(CCn3cc(C#N)cn3)C2)no1 (stereo unspecified) | Shiga toxin 2 (Escherichia coli O157:H7) (UniProt P09385+P09386) | % | 9.46 |
| Cn1cc(CC2CCN(C(=O)NCc3cn4ccsc4n3)C2)cn1 (stereo unspecified) | Shiga toxin 2 (Escherichia coli O157:H7) (UniProt P09385+P09386) | % | -8.11 |
| Cc1oc(C)c(C(=O)NCc2ccccn2)c1C | Shiga toxin 2 (Escherichia coli O157:H7) (UniProt P09385+P09386) | % | 26.9 |
| CN(C)Cc1ccc(C2CCCCN2C(=O)c2cccc(CO)n2)cc1 (stereo unspecified) | Shiga toxin 2 (Escherichia coli O157:H7) (UniProt P09385+P09386) | % | 0.431 |
| CC(=O)N1CCOCC2(CN(Cc3ccc(C)o3)CCO2)C1 (stereo unspecified) | Shiga toxin 2 (Escherichia coli O157:H7) (UniProt P09385+P09386) | % | -4.76 |
| CCOc1cccc2c1OCC(C(=O)NS(=O)(=O)c1ccc(Cl)cc1)=C2 | Shiga toxin 2 (Escherichia coli O157:H7) (UniProt P09385+P09386) | % | 17 |

Could you share which Percent Effect value was measured for `CC(C)n1c(=O)nc2n1C(=O)N(c1ccccc1)C2` ?
0.0543

Same again, this time with `Cc1ccc(NC(=O)N2CCC(NC(=O)c3ccc(C)o3)CC2)cc1`
25.3

Same again, this time with `Cc1ccc(-c2nc(CN3CCn4c(nnc4C4CC4)C3)cs2)o1`
-88.7

Same again, this time with COc1cccc(COCC(=O)N2CCCC(N3CCCC3)CC2)c1 (stereo unspecified)
12.6

Same again, this time with COc1ccc(C2CC(=O)Oc3cc(C)[nH]c(=O)c32)cc1 (stereo unspecified)
-8.78
